FYI, the data here is from PubChem BioAssay (NCI).

# System: T-47D breast
# Assay Info: NCI-60 one-dose screen, 48 h
# Test Parameters: 10 µM unless noted
About 83,000 compounds went through this panel and 20% of them were active in at least one assay; those are over-represented in the sample as a whole. The source made the active and inactive calls. Rule for the calls: active = growth percent below 10; inactive = the rest.
Respond using exactly one of the listed classes: True for active, False for inactive

Exercise: Could you kindly confirm the outcome this assay logged for `CSc1ccccc1C#C/C=C\C#Cc1ccccc1N1CCCC1=O` ?
Key: False

Exercise: Could you kindly confirm the outcome this assay logged for `Cc1nn(-c2ccc(Cl)cc2)c(=O)n1CCOc1ccccc1Cl` ?
Key: False

Exercise: Could you kindly confirm the outcome this assay logged for `CCN(C(=O)c1cc2ccccc2[nH]1)[C@H]1CCC[C@@H](NCc2ccc(OC)cc2)C1` ?
Key: False

Exercise: Could you kindly confirm the outcome this assay logged for `Cc1sc2nc(CSc3nnc(-c4ccco4)o3)[nH]c(=O)c2c1C` ?
Key: False

Exercise: Could you kindly confirm the outcome this assay logged for `CCN(CC)CCCNc1nc(C)cc(Nc2ccc3nc(C)cc(N)c3c2)n1` ?
Key: False

Exercise: Could you kindly confirm the outcome this assay logged for `COc1ccc(OC)c(-c2ccc(-c3ccccc3N)c3[nH]c4ccccc4c23)c1` ?
Key: False

Exercise: Could you kindly confirm the outcome this assay logged for `Cc1ccc(S(=O)(=O)NCCCNc2nccc(-c3c(-c4ccccc4)nc4sccn34)n2)cc1` ?
Key: False

Exercise: Could you kindly confirm the outcome this assay logged for `CC/C(=C(\c1ccc(O)cc1)c1ccc(OCCN(C)CCN(C)C(=O)CCC(=O)c2c(C)[nH]c(/C=C3\N=C(c4ccc[nH]4)C=C3OC)c2C)cc1)c1ccccc1` ?
Key: False

Exercise: Could you kindly confirm the outcome this assay logged for `O=C(CNC1CCCCC1)Nc1ccc(-c2nc3ccccc3s2)cc1` ?
Key: False

Exercise: Could you kindly confirm the outcome this assay logged for `COc1cccc(-c2nc3sccn3c2-c2ccnc(NCCNS(=O)(=O)c3ccccc3)n2)c1` ?
Key: True

Exercise: Could you kindly confirm the outcome this assay logged for `COc1ccc(NC(=O)CSc2nc3ccccc3c(=O)n2Cc2cc(OC)c(OC)c(OC)c2)cc1` ?
Key: False

Exercise: Could you kindly confirm the outcome this assay logged for `CC1=C(C#N)C(C)(C)C(C#N)=C(C)N1` ?
Key: False

Exercise: Could you kindly confirm the outcome this assay logged for `C=CC(=O)N[C@H](/C=C/C(=O)OCC)Cc1ccc(-c2cc(Cl)cc(Cl)c2)cc1` ?
Key: False

Exercise: Could you kindly confirm the outcome this assay logged for CCOC(=O)C1=C(CSC(=S)N(C2CCCCC2)C2CCCCC2)N(C)C(=O)NC1c1ccccc1 (configuration not stated) ?
Key: False

Exercise: Could you kindly confirm the outcome this assay logged for `Nc1c(C(=O)Nc2ccccc2)sc2nc3c(cc12)CCC3` ?
Key: False

Exercise: Could you kindly confirm the outcome this assay logged for `CN1C(=O)[C@H]2c3c1cccc3[C@@]13NC(=O)O[C@H]1[C@H](CCC3(C)C)C2(C)C` ?
Key: False

Exercise: Could you kindly confirm the outcome this assay logged for `COc1ccc2c(c1)C(=O)/C(=C/c1ccc(O)cc1)O2` ?
Key: False

Exercise: Could you kindly confirm the outcome this assay logged for `COc1ccc(C(=O)c2cc(OC)c(OC)c(OC)c2)cc1/C=C/C(=O)c1ccc2c(c1)OCO2` ?
Key: False

Exercise: Could you kindly confirm the outcome this assay logged for COc1cc(C2C3=C(COC3=O)Nc3c2ccc2c3CCCC2)cc2c1OCO2 (configuration not stated) ?
Key: False

Exercise: Could you kindly confirm the outcome this assay logged for `CC1CCN(C(=O)CSc2nc3sc4c(c3c(=O)[nH]2)CCCC4)CC1` ?
Key: False

Exercise: Could you kindly confirm the outcome this assay logged for `COc1cc(-c2csc(NC(=O)c3cc(C(F)(F)F)cc(C(F)(F)F)c3)n2)cc(OC)c1OC` ?
Key: True

Exercise: Could you kindly confirm the outcome this assay logged for O=C(COc1ccccc1)N1N=C(c2ccc(Cl)cc2)CC1c1c[nH]c2ccccc12 (configuration not stated) ?
Key: False

Exercise: Could you kindly confirm the outcome this assay logged for `O=C1CCC(=O)N1Cc1ccccc1` ?
Key: False

Exercise: Could you kindly confirm the outcome this assay logged for `O=S(=O)(NCCCNc1nccc(-c2c(-c3ccc(F)c(O)c3)nc3sccn23)n1)c1ccc(Cl)cc1` ?
Key: False

Exercise: Could you kindly confirm the outcome this assay logged for COC1=CC(c2ccc[nH]2)=N/C1=C\c1[nH]c(C)c(C(=O)CCC(=O)Oc2ccc3c(c2)CCC2C3CC[C@]3(C)[C@@H](O)CC[C@@H]23)c1C (some centres not stated) ?
Key: False

Exercise: Could you kindly confirm the outcome this assay logged for `CC(C)(C)c1ccc(S(=O)(=O)Oc2ccc3c4c(c(=O)oc3c2)CCCCC4)cc1` ?
Key: False

Exercise: Could you kindly confirm the outcome this assay logged for `COc1ncc(-c2ccc3ncnc(Nc4cccc(Cl)c4)c3c2)cc1N(S(C)(=O)=O)S(C)(=O)=O` ?
Key: False

Exercise: Could you kindly confirm the outcome this assay logged for `CCn1cc(C(=O)O)c(=O)c2cc(F)c(N3CCN(S(=O)(=O)c4cccc5ccccc45)CC3)cc21` ?
Key: True

Exercise: Could you kindly confirm the outcome this assay logged for `COc1cc(-n2nc(C(=O)Nc3ccc(C(=O)O)cc3)nc2-c2ccccc2)cc(OC)c1OC` ?
Key: False

Exercise: Could you kindly confirm the outcome this assay logged for `Cc1cc(C)c2c(=O)[nH]c(SCC(=O)Nc3cccc(S(=O)(=O)N(C)C)c3)nc2n1` ?
Key: False

Exercise: Could you kindly confirm the outcome this assay logged for `Cc1ccc(C(=O)c2sc3nc4c(cc3c2N)CCCC4)c(C)c1` ?
Key: False

Exercise: Could you kindly confirm the outcome this assay logged for C/C1=C\CCC2(C)OC2CC2CCC(C)(O)C(CC1)C2(C)C (configuration not stated) ?
Key: False

Exercise: Could you kindly confirm the outcome this assay logged for `CNC(=O)Cc1nc(-c2cccc(NS(=O)(=O)c3c(F)cccc3F)c2F)c(-c2ccnc(Nc3ccccc3)n2)s1` ?
Key: False

Exercise: Could you kindly confirm the outcome this assay logged for COc1ccc(C2CC(c3cccs3)=NN2c2ccc(S(=O)(=O)NC(=O)Nc3ccc(C)cc3)cc2)cc1 (configuration not stated) ?
Key: False

Exercise: Could you kindly confirm the outcome this assay logged for `CC(=O)Nc1nc(C(=O)N2N=C(C)/C(=C/c3cccs3)C2=O)cs1` ?
Key: False

Exercise: Could you kindly confirm the outcome this assay logged for COC1=CC(c2ccc[nH]2)=N/C1=C\c1[nH]c(C)c(CCCn2cc(CCCCCCCCC[C@@H]3Cc4cc(O)ccc4C4CC[C@]5(C)[C@@H](O)CC[C@H]5C43)nn2)c1C (some centres not stated) ?
Key: False

Exercise: Could you kindly confirm the outcome this assay logged for `NC(=O)c1c(NC(=O)c2ccc3c(c2)OCO3)sc2c1CCC(=O)C2` ?
Key: True
